Hi there, I'd appreciate the recorded MIC for every entry that follows.
- System: A. baumannii A390
- Assay: MIC determination for Acinetobacter strains (Example 3)
- Type: cell-based
- Assay Context: LEV R, CIP R, MRP R, IPM I, AMK R, TET I
Answers are plain numbers, in µg/mL.

For every item below, please supply its MIC.
1. Cc1c(-c2ccc(N)cc2)ccn2c(=O)c(C(=O)O)cc(C3CC3)c12
2. Cc1c(-c2ccc(N)c(F)c2)ccn2c(=O)c(C(=O)O)cc(C3CC3)c12
3. C[C@@H](O)[C@H]1C(=O)N2C(C(=O)O)=C(S[C@@H]3CN[C@H](C(=O)N(C)C)C3)[C@H](C)[C@H]12 [Meropenem, reference compound]
4. Cc1c(-c2cc(F)c(N)cc2F)ccn2c(=O)c(C(=O)O)cc(C3CC3)c12
5. Cc1c(-c2ccc(CN)cc2)ccn2c(=O)c(C(=O)O)cc(C3CC3)c12
6. COc1c(N2C[C@@H]3CCCN[C@@H]3C2)c(F)cc2c(=O)c(C(=O)O)cn(C3CC3)c12 [Moxifloxacin, reference compound]

Result:
[16, 16, 32, 8, 8, 16]

Would you mind listing MIC for each of the following molecules?
1. C[C@@H](O)[C@H]1C(=O)N2C(C(=O)O)=C(SCCN=CN)C[C@H]12 [Imipenem, reference compound]
2. Cc1c(-c2ccc(N)cc2)c(F)cn2c(=O)c(C(=O)O)cc(C3CC3)c12

Result:
1. 16
2. 8

---

- System: A. baumannii A489
- Assay: MIC without and with sub-inhibitory polymyxin B (Example 4)
- Format: cell-based, Acinetobacter baumannii
- Assay Context: Acinetobacter baumannii, A489, A. baumannii A489; without polymyxin B; 1st experiment; read-out: MIC without PB
Measurement Type: MIC (µg/mL)
One number for each entry, in µg/mL.

Examples with answers:
compound="C[C@@H](O)[C@H]1C(=O)N2C(C(=O)O)=C(S[C@@H]3CN[C@H](C(=O)N(C)C)C3)[C@H](C)[C@H]12 [Meropenem, reference compound]" measurement_type=MIC val=16
compound="COc1c(N2C[C@@H]3CCCN[C@@H]3C2)c(F)cc2c(=O)c(C(=O)O)cn(C3CC3)c12 [Moxifloxacin, reference compound]" measurement_type=MIC val=16
compound="Cc1c(-c2cc(Cl)c(N)c(Cl)c2)ccn2c(=O)c(C(=O)O)cc(C3CC3)c12 [Compound 3]" measurement_type=MIC val=4
compound="C[C@@H](O)[C@H]1C(=O)N2C(C(=O)O)=C(SCCN=CN)C[C@H]12 [Imipenem, reference compound]" measurement_type=MIC val=128

Provide MIC for all items below, preserving their order.
1. Cc1c(-c2ccc(N)c(F)c2)ccn2c(=O)c(C(=O)O)cc(C3CC3)c12 [Compound 1]
2. Cc1c(-c2ccc(N)c(F)c2)c(F)cn2c(=O)c(C(=O)O)cc(C3CC3)c12 [Compound 17]

Result:
4
8

List reported MIC for each of these compounds:
1. Cc1c(-c2ccc(N)cc2)c(F)cn2c(=O)c(C(=O)O)cc(C3CC3)c12 [Compound 7]
2. Cc1c(-c2cc(F)c(N)cc2F)ccn2c(=O)c(C(=O)O)cc(C3CC3)c12 [Compound 2]

Result:
1. 8
2. 2

---

- Tested on: S. aureus ATCC 25923
- Assay: MIC, selected panel of Gram-positive and Gram-negative strains (Example 5)
- Assay type: cell-based
- Assay Context: Staphylococcus aureus, ATCC25923, read-out: MIC S. aureus ATCC 25923
Measurement Type: MIC (µg/mL)
Give bare numbers, in µg/mL.

compound="Cc1c(-c2ccc(O)nc2)ccn2c(=O)c(C(=O)[O-])cc(C3CC3)c12.[K+] [Compound 55K salt]" val=0.5
compound="Cc1c(-c2ccc(CN)s2)ccn2c(=O)c(C(=O)[O-])cc(C3CC3)c12.[K+] [Compound 13K salt]" val=0.016
compound="Cc1c(-c2cccc3[nH]ncc23)ccn2c(=O)c(C(=O)[O-])cc(C3CC3)c12.[K+] [Compound 82K salt]" val=0.016
compound="Cc1c(-c2ccc3c(c2)CCN3)ccn2c(=O)c(C(=O)[O-])cc(C3CC3)c12.[K+] [Compound 77K salt]" val=0.016
compound="CNc1ccc(-c2ccn3c(=O)c(C(=O)[O-])cc(C4CC4)c3c2C)cn1.[K+] [Compound 78K salt]" val=0.008
compound="Cc1cc(-c2ccn3c(=O)c(C(=O)[O-])cc(C4CC4)c3c2C)ccn1.[K+] [Compound 65K salt]" val=0.016

Look at each compound and report its MIC.
1. Cc1c(-c2ccncc2)c(F)cn2c(=O)c(C(=O)[O-])cc(C3CC3)c12.[K+] [Compound 59K salt]
2. Cc1c(-c2ccc(N)c(CN)c2)ccn2c(=O)c(C(=O)[O-])cc(C3CC3)c12.[K+] [Compound 76K salt]
3. Cc1cn2c(=O)c(C(=O)[O-])cc(C3CC3)c2c(C)c1-c1ccc2[nH]ncc2c1.[K+] [Compound 88K salt]

Result:
1: 0.032; 2: 0.016; 3: 0.008
